Target: human TLR7 (Homo sapiens, UniProt Q9NYK1)
Sequence (Q9NYK1 27-1049): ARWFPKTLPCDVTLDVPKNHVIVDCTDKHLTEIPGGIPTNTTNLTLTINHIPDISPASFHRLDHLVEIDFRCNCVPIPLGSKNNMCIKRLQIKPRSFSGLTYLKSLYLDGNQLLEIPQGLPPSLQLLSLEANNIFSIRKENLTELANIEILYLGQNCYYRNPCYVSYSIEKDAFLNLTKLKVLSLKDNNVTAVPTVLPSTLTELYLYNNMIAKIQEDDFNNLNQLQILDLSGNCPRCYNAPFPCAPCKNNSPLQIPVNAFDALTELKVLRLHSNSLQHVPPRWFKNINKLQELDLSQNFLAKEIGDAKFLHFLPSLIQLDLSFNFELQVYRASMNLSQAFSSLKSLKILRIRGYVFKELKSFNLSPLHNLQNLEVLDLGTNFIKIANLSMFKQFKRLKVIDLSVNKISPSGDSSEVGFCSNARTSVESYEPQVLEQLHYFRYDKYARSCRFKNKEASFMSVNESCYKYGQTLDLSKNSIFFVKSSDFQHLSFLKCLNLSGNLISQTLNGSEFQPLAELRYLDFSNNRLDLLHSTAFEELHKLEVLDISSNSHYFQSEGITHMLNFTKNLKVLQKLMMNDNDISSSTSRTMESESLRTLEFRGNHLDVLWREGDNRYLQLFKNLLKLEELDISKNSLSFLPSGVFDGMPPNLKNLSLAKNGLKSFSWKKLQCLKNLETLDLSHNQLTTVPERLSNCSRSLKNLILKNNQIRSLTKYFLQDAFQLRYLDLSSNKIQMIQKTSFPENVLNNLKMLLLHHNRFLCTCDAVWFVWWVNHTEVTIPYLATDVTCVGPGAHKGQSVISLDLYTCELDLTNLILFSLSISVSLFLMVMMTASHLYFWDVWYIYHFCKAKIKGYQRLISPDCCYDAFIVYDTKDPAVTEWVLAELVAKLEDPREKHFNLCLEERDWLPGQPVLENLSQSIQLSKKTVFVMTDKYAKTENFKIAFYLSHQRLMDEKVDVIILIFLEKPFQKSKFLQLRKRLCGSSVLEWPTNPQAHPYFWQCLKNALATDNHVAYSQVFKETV
Test: TLR7 inhibition reporter assay (HEK-Blue cells, SEAP reporter, gardiquimod stimulation)
Conditions: HEK-Blue cells overexpressing human TLR7, SEAP reporter, gardiquimod 7.5 μM
Measured pIC50 values are reported for all entries that follow.
# pIC50 is unitless: minus log10 of the molar concentration; print number only

Input: State pIC50 (human TLR7 (Homo sapiens, UniProt Q9NYK1)) of Cc1cc(-c2[nH]nc(C3CCC(NCC4(C)COC4)CC3)c2C(C)C)cn2ncnc12 (single isomer, unassigned) [Example 281] .
Output: 8.02

Input: Provide human TLR7 (Homo sapiens, UniProt Q9NYK1) pIC50 reading for Cc1cc(-c2[nH]nc(-c3cncc(NC(C)C)c3)c2C(C)C)cn2ncnc12 .
Output: 8.71

Input: Send back human TLR7 (Homo sapiens, UniProt Q9NYK1) pIC50 of COc1cc(-c2[nH]nc(-c3cnc(C4CCN(C5CCC5)CC4)cn3)c2C(C)C)cn2ncnc12 only.
Output: 7.60

Input: Look up and report pIC50, with human TLR7 (Homo sapiens, UniProt Q9NYK1) as system, for Cc1cc(-c2[nH]nc(C(=O)NC[C@H]3CC[C@H](N)CC3)c2C(C)C)cn2ncnc12
Output: 8.53

Input: Output reported pIC50 of the molecule Cc1cc(-c2[nH]nc(C(=O)N3CC[C@H](N)C3)c2C(C)C)cn2ncnc12 on human TLR7 (Homo sapiens, UniProt Q9NYK1).
Output: 9.03

Input: With human TLR7 (Homo sapiens, UniProt Q9NYK1) as the test system, provide measured pIC50 for this molecule: Cc1cc(-c2[nH]nc(-c3ccc4c(c3)CCN(C)C4)c2C(C)C)cn2ncnc12
Output: 8.98

Input: Fill in pIC50 for Cc1cc(-c2[nH]nc(-c3ccc(C4CCN(C(=O)CN(C)C)CC4)cc3)c2C(C)C)cn2ncnc12 tested with human TLR7 (Homo sapiens, UniProt Q9NYK1).
Output: 7.65

Input: State the measured pIC50 (human TLR7 (Homo sapiens, UniProt Q9NYK1)) of Cc1cc(-c2[nH]nc(C3CCC(NC4CCN(C(C)C)CC4)CC3)c2C(C)C)cn2ncnc12 (single isomer, unassigned) [Example 288]
Output: 7.82

---

Molecular target: human TLR9 (Homo sapiens)
Sequence (Q9NR96 26-1032): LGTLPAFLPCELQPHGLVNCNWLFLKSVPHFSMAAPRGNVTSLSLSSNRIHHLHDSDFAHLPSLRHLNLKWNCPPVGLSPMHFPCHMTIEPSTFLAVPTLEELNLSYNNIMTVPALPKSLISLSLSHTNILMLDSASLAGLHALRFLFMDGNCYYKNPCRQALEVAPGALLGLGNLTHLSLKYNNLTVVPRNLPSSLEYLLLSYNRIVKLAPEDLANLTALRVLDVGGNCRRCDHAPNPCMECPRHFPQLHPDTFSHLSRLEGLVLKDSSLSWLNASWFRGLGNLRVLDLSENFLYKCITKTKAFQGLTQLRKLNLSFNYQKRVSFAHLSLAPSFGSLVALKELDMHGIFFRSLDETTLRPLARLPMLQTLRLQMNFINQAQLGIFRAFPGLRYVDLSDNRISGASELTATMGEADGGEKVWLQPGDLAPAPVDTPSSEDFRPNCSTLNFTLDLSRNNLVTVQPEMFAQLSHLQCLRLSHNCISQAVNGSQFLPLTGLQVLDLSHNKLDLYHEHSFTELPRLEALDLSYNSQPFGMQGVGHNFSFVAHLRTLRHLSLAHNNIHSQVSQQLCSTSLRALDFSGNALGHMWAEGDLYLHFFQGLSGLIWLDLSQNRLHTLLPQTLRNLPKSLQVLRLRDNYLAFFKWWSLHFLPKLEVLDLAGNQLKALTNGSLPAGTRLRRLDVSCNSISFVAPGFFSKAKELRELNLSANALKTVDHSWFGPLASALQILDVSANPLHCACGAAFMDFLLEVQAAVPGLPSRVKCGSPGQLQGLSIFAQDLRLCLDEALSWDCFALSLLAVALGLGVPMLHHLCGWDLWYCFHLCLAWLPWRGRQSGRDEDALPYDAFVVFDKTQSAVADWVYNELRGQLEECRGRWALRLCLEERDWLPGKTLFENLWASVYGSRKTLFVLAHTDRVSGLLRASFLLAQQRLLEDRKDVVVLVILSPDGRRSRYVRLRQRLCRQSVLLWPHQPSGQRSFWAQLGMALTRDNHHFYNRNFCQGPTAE
Assay: TLR9 inhibition reporter assay (HEK-Blue cells, SEAP reporter, ODN2006 stimulation)
Details: HEK-Blue cells overexpressing human TLR9, SEAP reporter, ODN2006 5 nM
experimentalReadout: IC50

Past entries and their recorded results:
>  <compound>
COCCNc1ccc2nc(-c3n[nH]c(-c4cc(C)c5ncnn5c4)c3C(C)C)sc2c1

>  <IC50>
> 50 µM

$$$$
>  <compound>
Cc1cc(-c2[nH]nc(C3CCC(N4CCN(C)CC4)CC3)c2C(C)C)cn2ncnc12 (single isomer, unassigned) [Example 286]

>  <IC50>
> 50 µM

$$$$

Input: Tell me its IC50 given COc1cc(-c2[nH]nc(-c3ccc(C4CN(C(=O)CN(C)C)C4)cc3)c2C(C)C)cn2ncnc12 as the entry.
Output: > 50 µM
